- MEASUREMENT DESCRIPTION: in vivo
- TEST PARAMETERS: mouse, blood, po, 100 mg/kg
ASSAY METRIC: concentration at 1 h (ng/mL)
Numbers only, in ng/mL.

Q) Look at this compound and give its reported concentration at 1 h. N[C@@H](C(=O)N[C@@H]1C(=O)N2C(C(=O)O)=C(CSc3c[nH]nn3)CS[C@H]12)c1ccc(O)cc1 [BL-S640 Sesquihydrate]
A) 42500

* * *

- MEASUREMENT DESCRIPTION: in vivo
- Parameters: species or system mice
- TEST PARAMETERS: mouse, im, 10 mg/kg
Structures can show the parent of a compound that is named as a salt.
ASSAY METRIC: concentration at 0.5 h (ng/mL)
Answers are plain numbers, in ng/mL.

| MOLECULE | ASSAY METRIC | MEASURED NUMBER |
| --- | --- | --- |
| Cc1nnc(SCC2=C(C(=O)O)N3C(=O)[C@@H](NC(=O)Cn4cnnn4)[C@H]3SC2)s1 [Cefazolin, Na salt, sodium cefazolin, reference compound] | concentration at 0.5 h | 11100 |

Q) Form field: reported concentration at 0.5 h of N[C@@H](C(=O)N[C@@H]1C(=O)N2C(C(=O)O)=C(CSc3c[nH]nn3)CS[C@H]12)c1ccc(O)cc1 [BL-S640 Sesquihydrate]
A) 13500
